Assay: Cytotoxicity in HeLa cells, ATP content measured with the ATPlite kit
Format: cell-based
Conditions: human, TOX HELA pCC50
Would you kindly list CC50 at 3 days for each of these molecules?

Below: 8 molecules and their reported CC50 at 3 days.
> print(dat)
                                   molecule    reading
1  CCc1cc(C(=O)N2CCCCCC2C)nc2cc(-c3ccc(NC(=O)C4CC4)cc3)nn12 (centres unmarked)  > 50.1 µM
2  CCc1cc(C(=O)N2CCCCCC2C)nc2cc(-c3ccc(NC(=O)CCC(=O)N(C)C)cc3F)nn12 (centres unmarked)  > 25.1 µM
3  CCc1cc(C(=O)N2CCc3sccc3C2C)nc2cc(-c3ccc(C4C[C@H]4C(=O)O)cc3F)nn12 (single isomer, unassigned)    47.9 µM
4  C=CCC(=O)Nc1ccc(-c2cc3nc(C(=O)N4CCCCCC4C)cc(CC)n3n2)cc1 (centres unmarked)  > 25.1 µM
5  CCc1cc(C(=O)N2CCc3sc(C)cc3C2C)nc2cc(-c3ccc(-c4ccc(C(=O)O)cn4)cc3F)nn12 (racemic)    26.3 µM
6  CCc1cc(C(=O)N2CCCCC[C@H]2C)nc2cc(-c3ccc(-c4cnc(C(=O)O)c(F)c4)cc3F)nn12    36.3 µM
7  CCc1cc(C(=O)N2CC(C)(C)c3ccccc3C2C)nc2cc(-c3ccc(C(=O)O)cc3F)nn12 (centres unmarked)  > 25.1 µM
8  CCc1cc(C(=O)N2CCCCCC2C)nc2c(Cl)c(-c3ccc(NC(=O)C4CC4)cc3F)nn12 (centres unmarked)  > 25.1 µM

Hi, could you look up CC50 at 3 days for each item in my list?
1. CCc1cc(C(=O)N2CCCCCC2C)nc2cc(-c3ccc(-c4ccc(C(=O)O)cn4)cc3F)nn12 (centres unmarked)
2. CCc1cc(C(=O)N2CCCCCC2C)nc2cc(-c3ccc(NC(=O)C4CC4)cc3C)nn12 (centres unmarked)
3. C[C@@H]1CCCCCN1C(=O)c1cc(C2(C)COC2)n2nc(-c3ccc(-n4cc(C(=O)O)cn4)cc3F)cc2n1 (racemic)
4. C[C@@H]1CCCCCN1C(=O)c1cc(C2CCC2)n2nc(-c3ccc(/C=C/C(=O)O)cc3F)cc2n1
5. CCc1cc(C(=O)N2CCCCC[C@H]2C)nc2cc(-c3ccc(N4CC(C(=O)O)C4)cc3F)nn12
6. CCc1cc(C(=O)N2CCCCCC2C)nc2c(F)c(-c3ccc(NS(C)(=O)=O)cc3F)nn12 (centres unmarked)

Output:
1: > 25.1 µM; 2: > 10 µM; 3: > 25.1 µM; 4: 38.9 µM; 5: > 25.1 µM; 6: > 25.1 µM

// each listed molecule needs a value for CC50 at 3 days
1. CNc1cc(C(=O)N2CCCCCC2C)nc2cc(-c3ccc(C(N)=O)cc3F)nn12 (centres unmarked)
2. CC1c2ccsc2CCN1C(=O)c1cc(C2(C)CC2)n2nc(-c3ccc4c(c3F)OCC(C(=O)O)=C4)cc2n1 (racemic)

Output:
> 25.1 µM
67.6 µM

Input: Report CC50 at 3 days for CCc1cc(C(=O)N2CCCCC[C@H]2C)nc2nc(-c3cccs3)nn12 (racemic) please.
Output: > 100 µM
